- System: SEM cells
- assay: cell viability relative to DMSO control; higher = less cytotoxic
- experimentalParameters: RPMI 5 mM glucose + 10% dialyzed FBS; 48 h; 0.00702 µM
measuredParameter: cell viability (%)
# unit: % | format: bare number

// worked examples, cell viability included
>  <structureSmiles>
CN(C)CCN(Cc1ccc(Cl)cc1)c1ccccn1.Cl

>  <cell viability, %>
96.4

$$$$
>  <structureSmiles>
CCCCCCCCCCCCCCCCCCOP(=O)([O-])OC1CC[N+](C)(C)CC1

>  <cell viability, %>
98

$$$$
>  <structureSmiles>
CCCCN(CCCC)C(=O)CN1C[C@H](c2ccc3c(c2)OCO3)[C@@H](C(=O)O)[C@@H]1c1ccc(OC)cc1

>  <cell viability, %>
125

$$$$

Query block: Dear colleague, I am looking for the recorded cell viability of the following molecule: Cc1cn(CCN2CCN(c3ccccc3-c3cc(C#N)cc(C(=O)NCCCN4CCCC4)c3)CC2)c2ccccc12
Result block: 116

Query block: Name the reported cell viability value associated with the molecule CC1(C)CC(O)CC(C)(C)N1[O]
Result block: 97.8
